Biological target: T1, TNFR1 (Homo sapiens, UniProt P19438)
T1 chain: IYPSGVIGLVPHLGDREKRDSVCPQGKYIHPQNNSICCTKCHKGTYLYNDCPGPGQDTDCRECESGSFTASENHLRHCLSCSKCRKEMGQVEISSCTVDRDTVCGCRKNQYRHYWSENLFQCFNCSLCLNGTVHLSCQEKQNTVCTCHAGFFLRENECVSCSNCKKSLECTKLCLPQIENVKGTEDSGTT
Assay: yeast display SC50
quantity_name: apparent Kd (screen) (nM)
Form entry: value (nM) — number only.

Solved entries:
[[record]]
binder = "L82S (designed binder) MTLQELLREEALRRAEAEAFRYALELLAEKFPEQKEYLLDLAEEIESQIRSLSGVDVEDVRKFLDKEWAWVKELLAEHPAESAEVEAARAARLAELRAEVEAKVAA"
unit_string = "nM"
obs_value = 1.54

[[record]]
binder = "L12V (designed binder) MTLQELLREEAVRRAEAEAFRYALELLAEKFPEQKEYLLDLAEEIESQIRSLSGVDVEDVRKFLDKEWAWVKELLAEHPAELAEVEAARAARLAELRAEVEAKVAA"
unit_string = "nM"
obs_value = 0.539

[[record]]
binder = "L96P (designed binder) MTLQELLREEALRRAEAEAFRYALELLAEKFPEQKEYLLDLAEEIESQIRSLSGVDVEDVRKFLDKEWAWVKELLAEHPAELAEVEAARAARLAEPRAEVEAKVAA"
unit_string = "nM"
obs_value = 0.49


Q: Look up and report measured apparent Kd (screen) for this entry: E33L (designed binder) MTLQELLREEALRRAEAEAFRYALELLAEKFPLQKEYLLDLAEEIESQIRSLSGVDVEDVRKFLDKEWAWVKELLAEHPAELAEVEAARAARLAELRAEVEAKVAA
Ans: 0.653
